Exercise: for every item that follows, state its recorded IC50.
target: Substance-K receptor (Homo sapiens); test: Displacement of [125I]-NKA from NK2 receptor (unknown origin) expressed in CHO cells by scintillation counter; assay type: cell-based
Sequence (P21452 whole entry): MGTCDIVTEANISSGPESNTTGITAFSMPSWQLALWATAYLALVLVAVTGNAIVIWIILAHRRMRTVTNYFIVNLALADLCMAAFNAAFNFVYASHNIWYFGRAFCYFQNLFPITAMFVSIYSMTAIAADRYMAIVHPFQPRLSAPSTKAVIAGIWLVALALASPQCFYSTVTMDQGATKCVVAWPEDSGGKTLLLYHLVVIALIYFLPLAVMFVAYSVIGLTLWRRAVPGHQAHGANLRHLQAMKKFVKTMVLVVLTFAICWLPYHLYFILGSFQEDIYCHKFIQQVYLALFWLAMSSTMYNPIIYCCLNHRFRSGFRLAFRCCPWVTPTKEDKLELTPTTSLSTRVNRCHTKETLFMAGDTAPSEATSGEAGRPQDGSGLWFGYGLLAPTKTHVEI
Numbered stars: 1 amine (or outer) side, 2 acyl side, 3 side chain; on linkers, the order of the positions; unused ones are H or OH. Square brackets hold non-standard residues; d marks the D form. Peptide text beside a SMILES is read from it. NMeF = CN[C@@H](Cc1ccccc1)C(=O)O; Aad = N[C@@H](CCCC(=O)O)C(=O)O; Oxalyl = O=C(C(=O)[*:2])[*:1]

Fill in IC50 for each of the 3 molecules listed.
1. CSCC[C@H](NC(=O)[C@H](CC(C)C)NC(=O)CNC(=O)[C@H](Cc1ccccc1)N(C)C(=O)[C@H](Cc1ccccc1)NC(=O)[C@H](CCCC(=O)O)NC(=O)C(=O)O)C(N)=O (Oxalyl-[Aad]F[NMeF]GLM-NH2)
2. CSCC[C@H](NC(=O)[C@H](CC(C)C)NC(=O)CNC(=O)[C@H](Cc1ccccc1)N(C)C(=O)[C@H](Cc1ccccc1)NC(=O)[C@@H](CCC(=O)O)NC(=O)CCC(=O)O)C(N)=O
3. CSCC[C@H](NC(=O)[C@H](CC(C)C)NC(=O)CNC(=O)[C@H](Cc1ccccc1)N(C)C(=O)[C@H](Cc1ccccc1)NC(=O)[C@@H](CC(=O)O)NC(=O)[C@@H](CC(=O)O)NC(C)=O)C(N)=O

Result:
> 10 µM
> 10 µM
> 10 µM
